Data provenance is patent US11434242B2.

Study System: Dopamine beta hydroxylase (Homo sapiens, UniProt P09172)
Construct: 125 μl of plasma; tissue Instituto Português do Sangue Transplantação; host or cells: human plasma from healthy donors
Sequence (P09172 40-617 limits assumed): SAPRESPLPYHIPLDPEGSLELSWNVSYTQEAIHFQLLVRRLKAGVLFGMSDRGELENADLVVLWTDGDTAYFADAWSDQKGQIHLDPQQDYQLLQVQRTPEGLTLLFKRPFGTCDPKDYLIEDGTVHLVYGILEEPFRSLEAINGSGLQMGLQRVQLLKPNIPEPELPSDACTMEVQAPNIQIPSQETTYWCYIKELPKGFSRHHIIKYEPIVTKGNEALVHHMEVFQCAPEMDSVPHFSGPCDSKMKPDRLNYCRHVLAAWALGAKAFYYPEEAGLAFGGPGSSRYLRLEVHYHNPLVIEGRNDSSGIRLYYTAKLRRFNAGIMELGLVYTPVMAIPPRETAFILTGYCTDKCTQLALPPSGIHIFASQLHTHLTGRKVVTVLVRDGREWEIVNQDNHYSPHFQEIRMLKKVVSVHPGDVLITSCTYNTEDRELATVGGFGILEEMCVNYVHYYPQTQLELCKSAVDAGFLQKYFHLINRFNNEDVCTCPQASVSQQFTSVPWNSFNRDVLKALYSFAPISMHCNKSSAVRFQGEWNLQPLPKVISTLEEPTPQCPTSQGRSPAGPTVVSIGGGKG
Protocol Notes: Dopamine beta hydroxylase activity in human plasma
Assay type: biochemical
Settings: inhibitor 0.1 μM
Method: Furthermore, the ability of a compound to inhibit DβH activity may be assessed in human plasma using the following assay. […]. Dopamine beta hydroxylase activity in human plasma was measured by the method of Nagatsu and Udenfriend (Nagatsu, T. and Udenfriend, S. “Photometric assay of dopamine-μ-hydroxylase activity in human blood.” Clin. Chem. 18(9) 980-983, 1972) with minor modifications. […] Absorbance was linear with octopamine concentration from 0.5 to 20 μg/ml. […]
Measure: Plasma (0.1 μM), activity in % of control

- Molecule: "CN(CCc1[nH]c(=S)n2c1C[C@@H](c1c(F)ccc(Cl)c1F)C2)C(=O)c1cccnc1 [Example 226]"
  Study System: "Dopamine beta hydroxylase (Homo sapiens, UniProt P09172)"
  Reported Value: "47.4 % of control"
- Molecule: "Cn1c(CC(=O)N[C@H]2CCOC2)c2n(c1=S)C[C@@H](c1c(F)ccc(F)c1F)C2 [Example 289]"
  Study System: "Dopamine beta hydroxylase (Homo sapiens, UniProt P09172)"
  Reported Value: "58.3 % of control"
- Molecule: "Fc1ccc(F)c([C@H]2Cc3c(CCN[C@@H]4CCOC4)[nH]c(=S)n3C2)c1F [Example 470]"
  Study System: "Dopamine beta hydroxylase (Homo sapiens, UniProt P09172)"
  Reported Value: "79.4 % of control"
- Molecule: "[2H]C([2H])([2H])n1c(CC(=O)O)c2n(c1=S)C[C@@]1(c3cc(Br)ccc3F)C[C@@H]21 [Example 462]"
  Study System: "Dopamine beta hydroxylase (Homo sapiens, UniProt P09172)"
  Reported Value: "10.3 % of control"
- Molecule: "CN(C(=O)Cc1c2n(c(=S)n1C)C[C@@]1(c3cc(Br)ccc3F)C[C@@H]21)[C@@H]1CCOC1 [Example 466]"
  Study System: "Dopamine beta hydroxylase (Homo sapiens, UniProt P09172)"
  Reported Value: "6.5 % of control"
- Molecule: "O=C(Cc1[nH]c(=S)n2c1C[C@@H](c1c(F)ccc(Cl)c1F)C2)N[C@H]1CCOC1 [Example 404]"
  Study System: "Dopamine beta hydroxylase (Homo sapiens, UniProt P09172)"
  Reported Value: "26.2 % of control"
- Molecule: "O=C(Cc1[nH]c(=S)n2c1C[C@@H](c1c(F)ccc(Cl)c1F)C2)NCCCN1CCOCC1 [Example 89]"
  Study System: "Dopamine beta hydroxylase (Homo sapiens, UniProt P09172)"
  Reported Value: "4.3 % of control"
- Molecule: "Cn1c(CC(=O)N[C@@H]2CCOC2)c2n(c1=S)C[C@H](c1cc(Cl)ccc1F)C2 [Example 251]"
  Study System: "Dopamine beta hydroxylase (Homo sapiens, UniProt P09172)"
  Reported Value: "36.0 % of control"
- Molecule: "Cn1c(CC(=O)O)c2n(c1=S)C[C@H](c1c(F)ccc(F)c1F)C2 [Example 409]"
  Study System: "Dopamine beta hydroxylase (Homo sapiens, UniProt P09172)"
  Reported Value: "64.4 % of control"
- Molecule: "[2H]C([2H])([2H])n1c(CC(=O)N[C@H]2CCOC2)c2n(c1=S)C[C@@]1(c3cc(Br)ccc3F)C[C@@H]21 [Example 461]"
  Study System: "Dopamine beta hydroxylase (Homo sapiens, UniProt P09172)"
  Reported Value: "6.9 % of control"
- Molecule: "Cn1c(CCO)c2n(c1=S)C[C@H](c1c(F)ccc(Br)c1F)C2 [Example 456]"
  Study System: "Dopamine beta hydroxylase (Homo sapiens, UniProt P09172)"
  Reported Value: "20.2 % of control"
- Molecule: "Cn1c(CC(=O)N[C@@H]2CCCOC2)c2n(c1=S)C[C@@H](c1c(F)c(F)cc(F)c1F)C2 [Example 278]"
  Study System: "Dopamine beta hydroxylase (Homo sapiens, UniProt P09172)"
  Reported Value: "62.0 % of control"
- Molecule: "COC[C@@H]1CCCN1C(=O)Cc1c2n(c(=S)n1C)C[C@@H](c1c(F)ccc(F)c1F)C2 [Example 247]"
  Study System: "Dopamine beta hydroxylase (Homo sapiens, UniProt P09172)"
  Reported Value: "35.9 % of control"
- Molecule: "Cn1c(CC(=O)NC2CCCC2C#N)c2n(c1=S)C[C@@H](c1c(F)ccc(F)c1F)C2 (some centres unmarked) [Example 345]"
  Study System: "Dopamine beta hydroxylase (Homo sapiens, UniProt P09172)"
  Reported Value: "40.3 % of control"
- Molecule: "CN(C(=O)Cc1c2n(c(=S)n1C)C[C@@H](c1c(F)cccc1F)C2)C1COC1 [Example 448]"
  Study System: "Dopamine beta hydroxylase (Homo sapiens, UniProt P09172)"
  Reported Value: "65.3 % of control"
- Molecule: "CN(C(=O)Cc1[nH]c(=S)n2c1C[C@@H](c1c(F)ccc(Cl)c1F)C2)C1CCS(=O)(=O)CC1 [Example 163]"
  Study System: "Dopamine beta hydroxylase (Homo sapiens, UniProt P09172)"
  Reported Value: "2.4 % of control"
- Molecule: "CNC(=O)Cc1[nH]c(=S)n2c1[C@@H]1C[C@]1(c1cc(F)cc(Cl)c1)C2 [Example 68]"
  Study System: "Dopamine beta hydroxylase (Homo sapiens, UniProt P09172)"
  Reported Value: "55.6 % of control"
